assay: Oral bioavailability in canine at 100 mg/kg; assay type: ADME, organism-based, Canis lupus familiaris; conditions: dog, in vivo
MEASURE: bioavailability
Lab note: write values as number then unit, every time.

## Input Fill in: bioavailability of C/C1=C\CC[C@@]2(C)O[C@H]2[C@H]2OC(=O)[C@@H](CN(C)C)[C@@H]2CC1 is ___
## Output 70%

---

test system: NIH3T3; assay: Cytotoxicity against mouse 3T3 cells; type: cell-based
MEASURE: IC50 (µM)
Numbers only, in µM.

## Input Could you tell me which IC50 is on file for C=C1C(=O)O[C@H]2[C@H]1CC/C(COC(=O)Cn1cc(F)c(=O)n(Cc3ccc(C(F)(F)F)cc3)c1=O)=C\CC[C@@]1(C)O[C@@H]21 ?
## Output 5.2

---

assay: Therapeutic index, ratio of IC50 for mouse 3T3 cells to IC50 for human Bel7402/5-FU cells; type: toxicity; conditions: mouse 3T3 cells versus human Bel7402/5-FU cells, read-out: TI
MEASURE: selectivity ratio

## Input For the molecule shown here, C=C1C(=O)O[C@H]2[C@H]1CC/C(COC(=O)Cn1cc(F)c(=O)n(Cc3ccc(C(F)(F)F)cc3)c1=O)=C\CC[C@@]1(C)O[C@@H]21 , give the reported selectivity ratio.
## Output 2.3

---

assay: Therapeutic index, ratio of IC50 for mouse 3T3 cells to IC50 for human Bel7402 cells; type: toxicity; settings: mouse 3T3 cells versus human Bel7402 cells, read-out: TI
MEASURE: selectivity ratio

## Input What value of selectivity ratio has been recorded for this entry: C=C1C(=O)O[C@H]2[C@H]1CC/C(COC(=O)Cn1cc(F)c(=O)n(Cc3ccc(C(F)(F)F)cc3)c1=O)=C\CC[C@@]1(C)O[C@@H]21
## Output 2.3

---

What pIC50 was measured for each of the following?
tested on: Bel7402/5-FU; assay: Antiproliferative activity against human Bel7402/5-FU incubated for 72 hrs by MTT assay; assay type: functional, cell-based
Give bare numbers, as −log10 of the molar value.

Dear reader, for each entry below, please note its pIC50.
1. C=C1C(=O)O[C@H]2[C@H]1CC/C(COC(=O)Cn1cc(F)c(=O)n(Cc3ccccc3)c1=O)=C\CC[C@@]1(C)O[C@@H]21
2. C=C1C(=O)O[C@H]2[C@H]1CC/C(COC(=O)Cn1cc(F)c(=O)n(Cc3ccccc3F)c1=O)=C\CC[C@@]1(C)O[C@@H]21
3. C=C1C(=O)O[C@H]2[C@H]1CC/C(Cn1cc(Cn3cc(F)c(=O)n(Cc4ccc(F)cc4)c3=O)nn1)=C\CC[C@@]1(C)O[C@@H]21
4. C=C1C(=O)O[C@@H]2C3O[C@]3(C)CC/C=C(\C)CC[C@@H]12 (stereo not given in full)
5. C=C1C(=O)O[C@H]2[C@H]1CC/C(COC(=O)Cn1cc(F)c(=O)n(Cc3ccc(F)cc3F)c1=O)=C\CC[C@@]1(C)O[C@@H]21
6. C=C1C(=O)O[C@H]2[C@H]1CC/C(COC(=O)Cn1cc(F)c(=O)n(Cc3ccc([N+](=O)[O-])cc3)c1=O)=C\CC[C@@]1(C)O[C@@H]21
7. C=C1C(=O)O[C@H]2[C@H]1CC/C(COC(=O)Cn1cc(F)c(=O)n(CCC)c1=O)=C\CC[C@@]1(C)O[C@@H]21

## Output
[5.37, 5.42, 5.31, 4.89, 5.30, 5.36, 5.04]

Report pIC50 for each item below.
1. C=C1C(=O)O[C@H]2[C@H]1CC/C(COC(=O)Cn1cc(F)c(=O)n(Cc3ccc(Br)cc3)c1=O)=C\CC[C@@]1(C)O[C@@H]21
2. C=C1C(=O)O[C@H]2[C@H]1CC/C(COC(=O)Cn1cc(F)c(=O)n(Cc3ccc(F)c(F)c3)c1=O)=C\CC[C@@]1(C)O[C@@H]21
3. C=C1C(=O)O[C@H]2[C@H]1CC/C(COC(=O)Cn1cc(F)c(=O)n(Cc3c(F)cccc3F)c1=O)=C\CC[C@@]1(C)O[C@@H]21

## Output
1: 5.49; 2: 5.35; 3: 5.30
